Measured MIC Enterococcus faecalis (GC 4554) values are reported for all entries that follow.
# Tested on: Enterococcus sp.
# assay-explanation: In vitro antibacterial evaluation: minimum inhibitory concentration (MIC), broth dilution method
# Assay type: cell-based
# experimental-conditions: Enterococcus faecalis (GC 4554); broth dilution, 18 hours at 35° C.
Give the quantity in µg/mL, number only.

CC(c1ccccc1)C1NC(=O)CNC(=O)C(CO)NC(=O)C(C(O)C2CNC(=N)N2C2OC(CO)C(O)C(O)C2O)NC(=O)C(C(O)C2CNC(=N)N2)NC(=O)C(Cc2ccc3oc(SCC(=O)c4ccccc4)nc3c2)NC1=O (centres unmarked) :: 64

Lab note: next compound to report on.
Lab note: CC(c1ccccc1)C1NC(=O)CNC(=O)C(CO)NC(=O)C(C(O)C2CNC(=N)N2C2OC(CO)C(O)C(O)C2O)NC(=O)C(C(O)C2CNC(=N)N2)NC(=O)C(Cc2ccc3oc(-c4ccc(Br)cc4)nc3c2)NC1=O (centres unmarked) gave MIC Enterococcus faecalis (GC 4554) of 32
